Taken from patent US20140322218A1.

Biological target: T1, muCDH19(44-139)::huCDH19(142-364)::muCDH19(363-770), Flag-tagged, on 293T cells (human/mouse chimera)
T1 construct: also called Hu EC2-3; C137847
Assay: FACS, transfected 293T
property: binding result

binder	val
anti-CDH19 antibody 2G6 (Ab ID 13588) (antibody, human IgG1, lambda, V domains shown) VH: QVQLVESGGGVVQPGRSLRLSCAASGFTFSSYGMHWVRQAPGKGLEWVAFIWYDGSNKYYADSVKDRFTISRDNSKNTLYLQMKSLRAEDTAVYYCARRAGIIGTIGYYYGMDVWGQGTTVTVSS VL: SYELTQPPSVSVSPGQTASITCSGDRLGEKYTCWYQQRPGQSPLLVIYQDTKRPSGIPERFSGSNSGNTATLTISGTQAMDEADYYCQAWDSSTVVFGGGTKLTVLG	binds
hu anti-<huCDH19> 4A2 (1-472)(Q17E,H47P) VH::huIgG1z / 4A2 (1-236)(N30Q,T102A) VL::huKLC (Ab ID 14026) (antibody, V domains shown, Engineered variant of 4A2) VH: QVQLQESGPGLVKPSETLSLTCTVSGGSISSSGYYWSWIRQPPGKGLEWIGYIYYTGSAYYNPSLKSRVTISVDTSKNQFSLKLSSVTAADTAVYYCARDGSSGWYFQYWGQGTLVTVSS VL: EIVLTQSPGTLSLSPGERATLSCRASRQISSSYLAWYQQKPGQAPRLLIYGPSSRATGIPDRFSGSGSGTDFTLTISRLEPEDFAVYYCQQYGSSFTFGPGTKVDIKR	binds
